Reference for the values: patent US10793563B2

measurement target: intracellular GCN2 (phosphorylation of the GCN2 substrate eIF2α) (Homo sapiens (Human))
Sequence (Q9P2K8 whole entry): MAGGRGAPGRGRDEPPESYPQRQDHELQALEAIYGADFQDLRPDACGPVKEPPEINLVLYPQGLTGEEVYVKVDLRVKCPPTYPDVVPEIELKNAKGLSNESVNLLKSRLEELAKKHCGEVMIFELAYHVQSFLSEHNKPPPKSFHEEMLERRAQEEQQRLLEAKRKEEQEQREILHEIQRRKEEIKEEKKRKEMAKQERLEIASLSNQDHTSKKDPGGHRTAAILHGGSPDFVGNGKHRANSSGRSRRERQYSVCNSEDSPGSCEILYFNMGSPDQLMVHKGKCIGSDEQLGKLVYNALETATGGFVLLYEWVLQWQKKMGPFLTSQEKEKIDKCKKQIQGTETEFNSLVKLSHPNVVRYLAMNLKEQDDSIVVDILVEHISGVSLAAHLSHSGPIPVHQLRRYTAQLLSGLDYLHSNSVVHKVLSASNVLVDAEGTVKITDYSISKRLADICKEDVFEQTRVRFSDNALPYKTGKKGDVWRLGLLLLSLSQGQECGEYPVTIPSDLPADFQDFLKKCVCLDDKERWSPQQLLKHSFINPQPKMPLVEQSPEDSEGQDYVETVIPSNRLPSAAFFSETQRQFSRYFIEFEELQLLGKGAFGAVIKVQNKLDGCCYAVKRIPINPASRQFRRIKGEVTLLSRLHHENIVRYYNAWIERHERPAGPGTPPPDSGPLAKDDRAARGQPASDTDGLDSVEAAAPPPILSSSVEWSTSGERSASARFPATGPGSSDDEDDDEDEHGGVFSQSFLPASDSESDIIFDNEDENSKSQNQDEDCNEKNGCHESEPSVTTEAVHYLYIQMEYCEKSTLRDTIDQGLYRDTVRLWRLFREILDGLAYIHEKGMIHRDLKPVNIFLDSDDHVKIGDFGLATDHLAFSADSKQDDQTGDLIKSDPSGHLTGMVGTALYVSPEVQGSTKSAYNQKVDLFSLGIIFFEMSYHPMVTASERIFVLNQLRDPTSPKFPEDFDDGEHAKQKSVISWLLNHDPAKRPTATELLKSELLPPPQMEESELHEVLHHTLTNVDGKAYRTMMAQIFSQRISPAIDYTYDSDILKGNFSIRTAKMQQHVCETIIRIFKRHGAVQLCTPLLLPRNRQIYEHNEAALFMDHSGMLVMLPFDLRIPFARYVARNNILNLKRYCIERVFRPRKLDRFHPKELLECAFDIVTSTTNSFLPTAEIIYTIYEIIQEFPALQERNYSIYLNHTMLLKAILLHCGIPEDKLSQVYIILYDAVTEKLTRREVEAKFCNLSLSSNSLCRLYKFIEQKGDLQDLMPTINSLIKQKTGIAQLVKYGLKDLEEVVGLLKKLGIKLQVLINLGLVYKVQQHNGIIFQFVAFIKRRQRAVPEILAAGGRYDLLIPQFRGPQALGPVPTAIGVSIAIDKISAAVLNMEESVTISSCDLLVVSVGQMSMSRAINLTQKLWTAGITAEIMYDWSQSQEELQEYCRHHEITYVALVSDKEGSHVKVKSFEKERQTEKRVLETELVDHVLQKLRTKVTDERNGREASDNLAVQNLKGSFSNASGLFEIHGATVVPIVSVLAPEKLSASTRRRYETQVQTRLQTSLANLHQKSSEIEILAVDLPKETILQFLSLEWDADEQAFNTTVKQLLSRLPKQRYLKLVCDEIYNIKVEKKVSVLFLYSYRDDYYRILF
assay remarks: GCN2 Cellular Inhibition Assay (AlphaScreen SureFire P-eIF2α Ser51, borrelidin-treated U2OS cells)
Format: cell-based
recorded conditions: 10 μM borrelidin, 1 h, phosphorylated eIF2α Ser51, read-out: GCN2 Biomarker (IC50)
IC50 reference

Previously resolved entries follow.
| compound | IC50 |
| --- | --- |
| CC(C)(C)OC(=O)N1CC2(CCCN(c3ccnc(-c4cnc5ccc(C(F)(F)F)cn45)n3)C2)C1 [I-387] | 500 to 5000 nM |
| CCOC1(N2CCN(c3ccnc(-c4cnc5ccc(C(F)(F)F)cn45)n3)C(C)C2c2cn[nH]c2)CC1 (centres unmarked) [I-348] | < 500 nM |
| CS(=N)(=O)C[C@H]1CCCN(c2ccnc(-c3cnc4ccc(C(F)(F)F)cn34)n2)C1 (some centres unmarked) [I-4] | 500 to 5000 nM |
| Cc1cc(-c2cnc3ccc(N4CC(F)(F)C4)cn23)nc(N2C[C@@H](C)C[C@H](c3cn[nH]c3)C2)n1 [I-287] | < 500 nM |
| C[C@@H]1C[C@H](N=S(C)(C)=O)CN(c2nccc(-c3cnc4ccc(C(F)(F)F)cn34)n2)C1 [I-169] | 500 to 5000 nM |
| Cc1n[nH]cc1C1CN(c2ccnc(-c3cnc4ccc(C(F)(F)F)cn34)n2)CC(C)O1 (centres unmarked) [I-358] | < 500 nM |
| CP(C)(=O)C1CC(c2cn[nH]c2)CN(c2ccnc(-c3cnc4ccc(Cl)cn34)n2)C1 (centres unmarked) [I-29] | > 5000 nM |
| NC(=O)[C@H]1CCCN(c2ccnc(-c3cnc4ccc(Cl)cn34)n2)C1 [I-102] | < 500 nM |
| CS(=O)(=O)NC[C@@H]1CN(c2cncc(-c3cnc4ccc(Cl)cn34)n2)CCO1 [I-113] | 500 to 5000 nM |
| CC1CN(c2ccnc(-c3cnc4ccc(Cl)cn34)n2)C(C)C(c2cn[nH]c2)N1 (centres unmarked) [I-36] | < 500 nM |

What measured IC50 is associated with FC(F)(F)c1ccc2ncc(-c3nccc(N4CCN(C5CC6(COC6)C5)[C@@H](c5cn[nH]c5)C4)n3)n2c1 [I-502] on intracellular GCN2 (phosphorylation of the GCN2 substrate eIF2α) (Homo sapiens (Human))?
< 500 nM

// repeat for Clc1ccc2ncc(-c3nccc(N4CCOC(c5cn[nH]c5)C4)n3)n2c1 (centres unmarked) [I-20] and report
< 500 nM

Would you mind doing FC(F)(F)CCN1CCN(c2ccnc(-c3cnc4ccc(C(F)(F)F)cn34)n2)CC1c1cn[nH]c1 (centres unmarked) [I-449] as well?
< 500 nM

Repeat with Fc1cc2ncc(-c3nccc(N4CCCC(c5cn[nH]c5)C4)n3)n2cc1Br (centres unmarked) [I-326]
< 500 nM

Can you handle C[C@H](NS(C)(=O)=O)[C@@H]1CN(c2ccnc(-c3cnc4ccc(C(F)(F)F)cn34)n2)CCO1 [I-407] next?
500 to 5000 nM

And then CC1(C)CN(c2ccnc(-c3cnc4ccc(C(F)(F)F)cn34)n2)CC2(CNC2)O1 [I-294] , what is it?
> 5000 nM

Field entry: Fc1cc2ncc(-c3nccc(N4CCCC(c5c[nH]cn5)C4)n3)n2cc1Cl (centres unmarked) [I-57]
500 to 5000 nM
